Test system: C. elegans young adults
ASSAY_OVERVIEW: C. elegans young adult motility dose-response assay
Format: cell-based, Caenorhabditis elegans
REPORTED_CONDITIONS: young adults; 40 h incubation; three independent assays in triplicate; read-out: Worm motility IC50 ± SD, C. elegans young adults
OBSERVATION_TYPE: IC50 (µM)
Form entry: value (µM) — number only.

Lab note: Fc1cccc(C#Cc2ccc(-c3ccn[nH]3)cc2)c1 gave IC50 of 8

---

ASSAY_OVERVIEW: HepG2 cytotoxicity (CellTiter-Glo)
Type: cell-based
REPORTED_CONDITIONS: human, HepG2 cells, read-out: half-maximal cytotoxic concentration (CC50)
OBSERVATION_TYPE: CC50 at 48 h

Lab note: C(#Cc1ccc(-c2ccn[nH]2)cc1)c1ccccc1 gave CC50 at 48 h of > 40 µM

---

Tested on: C. elegans young adults
ASSAY_OVERVIEW: C. elegans young adult motility dose-response assay
Type: cell-based, Caenorhabditis elegans
REPORTED_CONDITIONS: Caenorhabditis elegans, 40 h, young adults; 40 h incubation; three independent assays in triplicate; read-out: Worm motility IC50 ± SD, C. elegans young adults
pIC50: −log10 of the molar value.
Below: a set of entries, each annotated with reported pIC50.

Completed entries (count: 2):
C(#Cc1ccc(-c2ccn[nH]2)cn1)c1ccccc1 ... < 4.40
CO/N=C1\C[C@]2(C[C@@H]3C[C@@H](C/C=C(\C)C[C@@H](C)/C=C/C=C4\CO[C@@H]5[C@H](O)C(C)=C[C@@H](C(=O)O3)[C@]45O)O2)O[C@H](/C(C)=C/C(C)C)[C@H]1C [Moxidectin, moxidectin, reference compound] ... 8.52

Okay, now this compound:
Lab note: C#Cc1ccc(-c2ccn[nH]2)cc1 gave pIC50 of < 4.40

---

Test system: C. elegans young adults
ASSAY_OVERVIEW: C. elegans young adult motility dose-response assay
Assay type: cell-based, Caenorhabditis elegans
REPORTED_CONDITIONS: Caenorhabditis elegans, 40 h, young adults; 40 h incubation; three independent assays in triplicate; read-out: Worm motility IC50 ± SD, C. elegans young adults
Strictly below 10 µM in IC50: met. Otherwise: not met.

Some entries whose results are on file:
FC(F)(F)c1cccc(C#Cc2ccc(-c3ccn[nH]3)cc2)c1 ... not met
Clc1cccc(C#Cc2ccc(-c3ccn[nH]3)cc2)c1 ... met
COc1ccccc1C#Cc1ccc(-c2ccn[nH]2)cc1 ... not met
Oc1cccc(C#Cc2ccc(-c3ccn[nH]3)cc2)c1 ... not met
C(#Cc1ccccn1)c1ccc(-c2ccn[nH]2)cc1 ... not met
N#Cc1ccc(C#Cc2ccc(-c3ccn[nH]3)cc2)cc1 ... not met

Query :: Quick check: does Clc1ccccc1C#Cc1ccc(-c2ccn[nH]2)cc1 have IC50 under 10 µM?
Result :: not met

Query :: Quick check: does Fc1cccc(C#Cc2ccc(-c3ccn[nH]3)cc2)c1 have IC50 under 10 µM?
Result :: met

Query :: Quick check: does Fc1ccccc1C#Cc1ccc(-c2ccn[nH]2)cc1 have IC50 under 10 µM?
Result :: met

Query :: Quick check: does C(#Cc1cccnc1)c1ccc(-c2ccn[nH]2)cc1 have IC50 under 10 µM?
Result :: not met
